The measurements presented in this section are drawn from patent US20220002417A1.

Quick list: kon per entry.
- target_of_assay: T1, human PD-L1 extracellular domain (human, UniProt Q9NZQ7 19-238)
- T1 construct: also called recombinant PD-L1; recombinant human PD-L1 extracellular domain protein
- assay_overview: BLI (Octet Red 96), antibody on anti-human Fc biosensor, PD-L1 ECD in solution, 1:1 global fit
Express the result in M⁻¹ s⁻¹ but write the number alone.

**Query** Query (binder): AB3 (rabbit/human chimeric anti-PD-L1 antibody) (antibody, human IgG1, kappa, V domains shown, Rabbit variable domains on human IgG1 / human kappa constant domains; also called AB3 CHIMERIC) VH: QEQLEESGGGLVTPGGTLTLTCTVSGFSLSSYWMSWVRQAPGKGLEWIGVIDTNVYIYYANWAKGRFTISKTSTTVDLKITSPTTEDTATYFCARYVGNNDDYINLWGPGTLVTVSS VL: AVLTQTPSPVSAAVGGTVSISCQSSQSVYNGYWLSWYQQKPGQPPKLLIYGASTLASGVPSRFKGSGSGTQFTLTINDVQCDDAATYYCLGSYTSSTENSFGGGTEVVVKR ; field requested: kon
**Result** 308000

**Query** Query (binder): AB5HU (humanized form of antibody AB5) (antibody, human IgG1, kappa, V domains shown, Humanized, human gamma-1 / kappa constant domains) VH: QSVEESGGGLVQPGGSLRLSCTASGIDLNTYDMIWVRQAPGKGLEWVGIITYSGSRYYANWAKGRFTISKDNTKNTVYLQMNSLRAEDTAVYYCARDYMSGSHLWGQGTLVTVSS VL: AYDMTQSPSSVSASVGDRVTIKCQASEDIYSFLAWYQQKPGKAPKLLIHSASSLASGVPSRFSGSGSGTDFTLTISSLQPEDFATYYCQQGYGKNNVDNAFGGGTKVEIKR ; field requested: kon
**Result** 583000

**Query** Query (binder): AB2 (rabbit/human chimeric anti-PD-L1 antibody) (antibody, human IgG1, kappa, V domains shown, Rabbit variable domains on human IgG1 / human kappa constant domains; also called AB2 CHIMERIC) VH: QSLEESGGRLVTPGTPLTLTCTTSGIDLSTYDMIWVRQAPGKGLEYIGIISYVGNTYYASWAKGRFTLSKTSTTVDLRITSPTTEDTATYFCARDFISGSHLWGPGTLVTVSS VL: AYDMTQTPASVSAAVGGTVTINCQASESISSFLSWYQQKPGQRPRLLIFSASTLASGVPSRFKGSGSGTEFTLTISGVECADAATYYCQQGYSKSNVDNAFGGGTEVVVKR ; field requested: kon
**Result** 438000

**Query** Query (binder): AB1HU (humanized form of antibody AB1) (antibody, human IgG1, kappa, V domains shown, Humanized, human gamma-1 / kappa constant domains) VH: EVQLLESGGGLVQPGGSLRLSCAASGFSFSSGYDMCWVRQAPGKGLEWIACIAAGSAGITYDANWAKGRFTISRDNSKNTLYLQMNSLRAEDTAVYYCARSAFSFDYAMDLWGQGTLVTVSS VL: DIQMTQSPSTLSASVGDRVTITCQASQSISSHLNWYQQKPGKAPKLLIYKASTLASGVPSRFSGSGSGTEFTLTISSLQPDDFATYYCQQGYSWGNVDNVFGGGTKVEIKR ; field requested: kon
**Result** 568000

**Query** Query (binder): AB3HU (humanized form of antibody AB3) (antibody, human IgG1, kappa, V domains shown, Humanized, human gamma-1 / kappa constant domains) VH: EVQLVESGGGLVQPGGSLRLSCAASGFSLSSYWMSWVRQAPGKGLEWIGVIDTNVYIYYANWAKGRFTISRDNSKNTLYLQMNSLRAEDTAVYYCARYVGNNDDYINLWGQGTLVTVSS VL: DIQMTQSPSTLSASVGDRVTITCQSSQSVYNGYWLSWYQQKPGKAPKLLIYGASTLASGVPSRFSGSGSGTEFTLTISSLQPDDFATYYCLGSYTSSTENSFGGGTKVEIKR ; field requested: kon
**Result** 186000
